# credit: PubChem BioAssay (NCI)

- Tested on: PC-3 prostate
- ASSAY_PROTOCOL: NCI tumour cell line growth inhibition, 48 h
READOUT_TYPE: TGI (µM)
Unit µM implied. Number only.

> print(dat)
                                   compound  observed.result
1  C(=C/CCCN1O[C@@H](CCCCCCCCc2cccnc2)[C@H]2CCC[C@H]21)/CCCCCCCCCc1cccnc1             46.1

Request: Quote TGI reported for CCOC(=O)CCC(NC(=O)C(N)Cc1ccc(N(CCCl)CCCl)cc1)C(=O)OCC (stereo not given) please.
Response: 7.9

* * *

- System: CAKI-1 renal
- ASSAY_PROTOCOL: NCI tumour cell line growth inhibition, 48 h; in the data active = GI50 below about 0.43 µM; inactive = the rest
Select the matching outcome among 1 for active, 0 for inactive

Example entries begin here.
MOLECULE	GROUP_LABEL
Cc1ccc(NC2=C3CCCCC3OC2=O)cc1 (stereo unspecified)	0
OC(c1cc(C(F)(F)F)nc2c(C(F)(F)F)cccc12)C1CCCCN1 (stereo unspecified)	0
Cc1nnc2ccnn2c1C	0
c1ccc(Nc2ncc(-c3ccccc3)o2)cc1	0
CN(C)CC(O)c1ccc(/C=C/c2ccc(Cl)cc2)cc1 (stereo unspecified)	0

Request: Query: recorded result category for COc1ccc(CN2C(=O)C(Cl)=C(Nc3cccc(C(F)(F)F)c3)C2=O)cc1 in this test
Response: 0

* * *

- Test system: HOP-92 NSCLC
- ASSAY_PROTOCOL: NCI tumour cell line growth inhibition, 48 h
Would you mind labelling by TGI? At or over 6 µM is True, under is False.

A selection of reference data follows.
> print(dat)
                                   compound  group.label
1                           Cc1nnc2ccnn2c1C         True
2            CCOC(=O)c1nnn(CCCCO)c1C(=O)OCC         True
3  Clc1ccc2cccc3c2c1C1OC3c2ccccc21 (stereo not given)         True
4  CCOC(=O)CCC(NC(=O)C(N)Cc1ccc(N(CCCl)CCCl)cc1)C(=O)OCC (stereo not given)        False
5  CN1CCN(C(=O)COc2ccc(C34CC5CC(CC(C5)C3)C4)cc2)CC1         True
6  O=C1c2cccc3cc([N+](=O)[O-])cc(c23)C(=O)N1Nc1ccc([N+](=O)[O-])cc1[N+](=O)[O-]         True

Request: # bool: TGI of COc1cc(/C=C2\CN(S(=O)(=O)c3ccc(C)cc3)C/C(=C\c3cc(CN4CCCC4)c(O)c(OC)c3)C2=O)cc(CN2CCCC2)c1O >= 6 µM
Response: False

Request: Is reported TGI greater than or equal to 6 µM here: COc1c2ccccc2c(OC)c2[nH]c(=O)ccc12
Response: True

Request: Quick check, TGI >= 6 µM? COc1ccc(C(SCCO)(c2ccccc2)c2ccc(OC)cc2)cc1
Response: True

* * *

- System: UO-31 renal
- ASSAY_PROTOCOL: NCI tumour cell line growth inhibition, 48 h; in the data active = GI50 below about 0.43 µM; inactive = the rest
# output must be one of active, inactive

Some solved cases for reference:
COMPOUND	GROUP_LABEL
NCCNCCNCCN	inactive
Nc1nc2[nH]cc(CCc3ccc(C(=O)N[C@@H](CCC(=O)O)C(=O)O)cc3)c2c(=O)[nH]1	active
CC(C)(C)[Si](C)(C)OC1[C@@H](O[Si](C)(C)C(C)(C)C)[C@@H](CNC(=O)NC(=O)C(F)(F)F)O[C@H]1n1cnc2c(NC(=O)Nc3ccccc3)ncnc21 (stereo partly drawn)	inactive
O=C1NC(=NCc2ccccc2)S/C1=C\c1ccc2ncccc2c1	inactive
CN1CCN(C(=O)COc2ccc(C34CC5CC(CC(C5)C3)C4)cc2)CC1	inactive
COC(=O)c1cc2oc(/C=C3/SC(=S)N(NC(C)=O)C3=O)cc2n1C	inactive
COc1cc(-c2nn(-c3cccc(NC(=O)c4ccccc4)c3)cc2-c2ccncc2)ccc1Cl	active

Turning now to a further record.
Request: Call for entry CN(C)CC(O)c1ccc(/C=C/c2ccc(Cl)cc2)cc1 (stereo not drawn) :
Response: inactive
